TARGET OR TEST SYSTEM: VEGF/GAG (glycosaminoglycan) (Homo sapiens)
Sequence (P15692 1-191 isoform P15692-4): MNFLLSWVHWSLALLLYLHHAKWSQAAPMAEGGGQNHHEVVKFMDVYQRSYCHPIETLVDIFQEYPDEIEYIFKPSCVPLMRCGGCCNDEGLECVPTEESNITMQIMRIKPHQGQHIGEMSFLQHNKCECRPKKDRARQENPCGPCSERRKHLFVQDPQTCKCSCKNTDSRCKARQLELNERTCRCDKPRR
PROTOCOL: in vitro inhibition of VEGF/GAG (glycosaminoglycan) binding ([125I]heparin-16-mer / VEGF165 filter binding)
PARTICULARS: purified VEGF165 20 nM, 60 minutes at room temperature, 0.16% DMSO
REPORTED PROPERTY: IC50 (µM)

Here's what some known entries look like.
Cc1ccc2c(c1)N(CC(=O)NC(C)(C)C)C(=O)C(NC(=O)Nc1cccc(C(=O)NS(C)(=O)=O)c1)CC2c1ccccc1 (stereo not shown) : 11
Cc1ccc2c(c1)N(CC(=O)NC(C)(C)C)C(=O)C(NC(=O)Nc1cccc(C(=O)O)c1)CC2c1ccccc1 (stereo not shown) : 9.8

P = Cc1ccccc1C1CC(NC(=O)Nc2cccc(C(=O)Nc3nnc(C(F)(F)F)s3)c2)C(=O)N(CC(=O)NC(C)(C)C)C(c2ccccc2)C1 (stereo not shown)
Q = Cc1ccccc1C1CC(NC(=O)Nc2cccc(C(=O)O)c2)C(=O)N(CC(=O)NC(C)(C)C)C(c2ccccc2)C1 (stereo not shown)
Q) Lowest IC50? choose P or Q Identify your pick by its label.
A) P
